target: cloned human 5-HT1A receptors (Homo sapiens, UniProt P08908); assay: Inhibition of 3H-5-CT binding to human 5-HT1A receptors; conditions: cloned human 5-HT1A receptors in HeLa cells (HA7)
Sequence (P08908 whole entry): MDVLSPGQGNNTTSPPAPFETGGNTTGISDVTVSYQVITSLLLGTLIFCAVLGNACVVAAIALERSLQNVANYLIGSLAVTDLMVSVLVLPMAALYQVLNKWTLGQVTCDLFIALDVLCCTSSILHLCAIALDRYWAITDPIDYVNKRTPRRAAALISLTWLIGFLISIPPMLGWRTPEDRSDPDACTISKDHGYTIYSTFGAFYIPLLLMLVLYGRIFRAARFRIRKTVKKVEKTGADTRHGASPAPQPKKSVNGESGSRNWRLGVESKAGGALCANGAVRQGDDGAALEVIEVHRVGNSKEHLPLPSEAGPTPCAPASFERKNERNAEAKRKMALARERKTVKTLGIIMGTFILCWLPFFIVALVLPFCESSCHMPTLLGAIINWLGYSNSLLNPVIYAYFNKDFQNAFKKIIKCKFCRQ
REPORTED METRIC: IC50

Quick one: give me IC50 for each item below, same order please.
1. Clc1ccc(SCCN2CCN(c3cccc4c3OCCO4)CC2)cc1Cl
2. Clc1cccc(Cl)c1SCCN1CCN(c2cccc3c2OCCO3)CC1

Response line:
0.076 µM
0.031 µM

Take each entry in turn and give its IC50.
1. CCc1ccccc1SCCCN1CCN(c2cccc3c2OCCO3)CC1
2. N#Cc1ccc(N2CCN(CCCOc3ccc(F)cc3Br)CC2)c2c1OCCO2
3. Cc1cc(F)ccc1OCCCN1CCN(c2cccc3c2OCCO3)CC1

Response line:
0.0092 µM
0.23 µM
0.0045 µM
